Entry source: PubChem BioAssay AID1851

tgt: Cytochrome P450 1A2 (Homo sapiens)
method_notes: Cytochrome panel assay with activity outcomes
assay_context: recombinant CYP, pro-luciferin dealkylation, luminescence, p450-cyp1a2; series mostly up to 57.1 µM
Procedure: The P450 gene superfamily is involved in the metabolism and clearance of xenobiotics. This assay used various human CYP P450 isozymes to measure the dealkylation of various pro-luciferin substrates to luciferin. The luciferin is then measured by luminescence after the addition of a luciferase detection reagent. […] Inhibitors and some substrates limit the production of luciferin, and decrease measured luminescence. […] 8, Detection, 1 sec, ViewLux luminescent read […]
In all, about 16,000 compounds went through this assay and about 5,700 (36%) were called active. About 24% were inconclusive and are not listed. Some of the results follow.
readout_kind: AC50

For orientation, consider the following solved cases.
[
  {
    "compound": "O=C(NNC(=O)c1cc2cc3ccccc3nc2s1)c1cccc(C(F)(F)F)c1",
    "AC50": "inactive"
  },
  {
    "compound": "O=C(Nc1cccnc1)C1COc2ccccc2O1 (stereo not drawn)",
    "AC50": "11.2 µM (active)"
  },
  {
    "compound": "CCC(C)(C)N=C(NC#N)Nc1cccnc1",
    "AC50": "12.6 µM (active)"
  },
  {
    "compound": "CC(C)NC(=O)N1CCC2(CC1)CCN(C(=O)c1cccn1C)CC2",
    "AC50": "inactive"
  },
  {
    "compound": "Nc1ccccc1S(N)(=O)=O",
    "AC50": "inactive"
  },
  {
    "compound": "Cc1cc(C)nc(Nc2ncc(O)n2-c2ccccc2)n1",
    "AC50": "2.82 µM (active)"
  },
  {
    "compound": "Cc1ccc(S(=O)(=O)Oc2ccc(/C=C(/NC(=O)c3ccccc3)C(=O)Nc3ccccc3)cc2)cc1",
    "AC50": "inactive"
  },
  {
    "compound": "Cc1ccccc1NC(=S)NN1CCN(C)CC1",
    "AC50": "inactive"
  }
]

Under Cytochrome P450 1A2 (Homo sapiens), report AC50 for O=C(NCCCN1CCOCC1)C1COc2ccccc2O1 (stereo not drawn) inactive

Under Cytochrome P450 1A2 (Homo sapiens), report AC50 for COC(=O)N1CCC2(CCCN(Cc3ccc(C#N)cc3)C2)CC1 inactive

Under Cytochrome P450 1A2 (Homo sapiens), report AC50 for COCCNc1ncnc2ccc(-c3cccc(NS(C)(=O)=O)c3)cc12 0.794 µM (active)

Under Cytochrome P450 1A2 (Homo sapiens), report AC50 for CC(C)NC(=O)C(C)n1cccc1C(=O)c1ccccc1 (stereo not drawn) 25.1 µM (active)

Under Cytochrome P450 1A2 (Homo sapiens), report AC50 for CCCCC1(C)OC(=O)C(=Cc2ccc(N(CC)CC)cc2)C(=O)O1 (stereo not drawn) 5.01 µM (active)

====

tgt: Cytochrome P450 1A2 (Homo sapiens) (UniProt P05177)
Sequence (P05177 whole entry, looked up): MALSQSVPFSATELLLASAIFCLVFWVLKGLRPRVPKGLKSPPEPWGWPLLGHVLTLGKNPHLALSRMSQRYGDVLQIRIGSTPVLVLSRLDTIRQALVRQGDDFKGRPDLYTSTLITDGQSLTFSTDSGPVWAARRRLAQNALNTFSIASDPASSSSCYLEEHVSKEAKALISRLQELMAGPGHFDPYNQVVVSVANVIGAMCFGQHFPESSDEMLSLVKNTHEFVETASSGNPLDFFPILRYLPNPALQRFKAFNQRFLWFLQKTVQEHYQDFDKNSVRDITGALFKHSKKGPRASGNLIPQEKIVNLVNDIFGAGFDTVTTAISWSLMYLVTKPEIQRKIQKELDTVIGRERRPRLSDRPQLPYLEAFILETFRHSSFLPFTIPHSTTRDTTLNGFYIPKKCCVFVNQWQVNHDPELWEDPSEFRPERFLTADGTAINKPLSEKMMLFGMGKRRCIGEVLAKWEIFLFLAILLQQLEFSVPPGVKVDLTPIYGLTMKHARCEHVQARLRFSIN
method_notes: Cytochrome panel assay with activity outcomes
assay_context: recombinant CYP, pro-luciferin dealkylation, luminescence, p450-cyp1a2; series mostly up to 57.1 µM
Method: The P450 gene superfamily is involved in the metabolism and clearance of xenobiotics. This assay used various human CYP P450 isozymes to measure the dealkylation of various pro-luciferin substrates to luciferin. The luciferin is then measured by luminescence after the addition of a luciferase detection reagent. […] Inhibitors and some substrates limit the production of luciferin, and decrease measured luminescence. […] 8, Detection, 1 sec, ViewLux luminescent read […]
Out of some 16,000 compounds screened, about 5,700 (36%) were called active. Roughly 24% stayed inconclusive and do not appear here. The call rests on the fitted dose curve; in most records, active means well fitted curve in the direction sought with a large enough effect; inconclusive means small, poorly fitted or top-dose-only effect, or effect the other way; inactive means no such curve, though single readings can be large or run the other way. The list shows a part of the results.
Select the correct class. Options are yes (1) = active, no (0) = inactive and nothing else.

[
  {
    "compound": "CCOc1ccc(NC(=S)N(Cc2ccc(Cl)cc2)Cc2ccco2)cc1",
    "group": "yes (1)"
  }
]

Check the results log: what was the call for Cc1ccc(NC(=O)C(=O)NCc2ccc(/C=C(/C#N)C(=O)NCc3cccnc3)o2)cc1 ? no (0)

Check the results log: what was the call for CC1CCN(CC(=O)Nc2cccc([N+](=O)[O-])c2)CC1 ? no (0)

Check the results log: what was the call for NC(N)=Nc1ccc(Cl)cc1 ? no (0)

Check the results log: what was the call for CCOC(=O)c1oc2nc(CC(C)C)c3c(c2c1N)CCC3 ? yes (1)
